# Test system: Alternaria solani
# experiment.description: Fungal growth assay, control of Alternaria solani (Example B-4 a)
# Assay type: cell-based
# experimental.setup: component B) alone, 0.067 ppm [mg/L]
endpoint: Observed control in % (% Cobs) (%)
Please reply with the bare figure in % and do not write the unit itself.

Record excerpt, results attached:
CO/C=C(/C(=O)OC)c1ccccc1Oc1cc(Oc2ccccc2C#N)ncn1 [Azoxystrobin] :: 31
Cc1cc(C2CC2)nc(Nc2ccccc2)n1 [Cyprodinil] :: 30
CC(Cc1ccc(C(C)(C)C)cc1)CN1CCCCC1 (stereo not shown) [Fenpropidin] :: 0

Please examine the following record next.
Lookup: Field request: Observed control in % (% Cobs) | item: N#Cc1c[nH]cc1-c1cccc2c1OC(F)(F)O2 [Fludioxonil]
Found: 25

Just for reference, patent US20080076664A1 is where these values come from.
